- TEST_TARGET: Solute carrier organic anion transporter family member 1B1 (Homo sapiens)
- Sequence (Q9Y6L6 whole entry): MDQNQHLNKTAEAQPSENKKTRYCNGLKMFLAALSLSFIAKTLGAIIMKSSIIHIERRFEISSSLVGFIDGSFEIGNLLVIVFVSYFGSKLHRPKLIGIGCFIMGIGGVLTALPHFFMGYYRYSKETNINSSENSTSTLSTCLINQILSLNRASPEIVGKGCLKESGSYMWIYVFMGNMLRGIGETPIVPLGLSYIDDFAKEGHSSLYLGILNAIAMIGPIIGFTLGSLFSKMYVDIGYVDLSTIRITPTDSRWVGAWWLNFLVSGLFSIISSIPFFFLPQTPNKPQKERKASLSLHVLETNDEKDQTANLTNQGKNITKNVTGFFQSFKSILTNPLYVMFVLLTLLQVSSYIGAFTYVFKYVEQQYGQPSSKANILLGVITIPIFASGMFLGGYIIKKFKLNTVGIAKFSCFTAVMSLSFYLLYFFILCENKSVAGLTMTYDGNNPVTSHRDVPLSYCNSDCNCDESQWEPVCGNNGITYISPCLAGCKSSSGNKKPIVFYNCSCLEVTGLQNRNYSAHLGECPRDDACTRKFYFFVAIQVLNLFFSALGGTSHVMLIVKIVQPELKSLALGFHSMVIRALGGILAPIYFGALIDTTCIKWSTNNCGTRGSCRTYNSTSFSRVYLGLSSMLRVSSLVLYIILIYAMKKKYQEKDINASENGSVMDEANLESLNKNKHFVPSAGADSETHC
- TEST_CONDITIONS: chinese hamster, cho, 10 µM
Measured residual activity by item
Number in %, nothing else.

COMPOUND	residual activity (%)
O=C(O)[C@H](O)[C@@](O)(Cc1ccc(O)cc1)C(=O)O [PISCIDIC ACID]	92.25

What does the record list as residual activity for O=C(C1CCCCC1)N1CC(=O)N2CCc3ccccc3C2C1 (centres undefined) [PRAZIQUANTEL] ?
162.2

Here is the next compound: CC(CN(C)C)CN1c2ccccc2CCc2ccccc21.O=C(O)/C=C\C(=O)O (centres undefined) [TRIMIPRAMINE MALEATE]
93.52

Here is the next compound: C/C=C1\[C@H]2C=C(C)C[C@]1(N)c1ccc(=O)[nH]c1C2 [HUPERZINE A]
93.86

Taken from ChEMBL document CHEMBL3039007.
